Assay: Cytotoxicity against human normal liver cell line
Assay type: cell-based
Settings: LO2 normal liver cells
parameter: IC50 (µM)

compound="COc1ccc(CN(c2cc(OC)c(OC)c(OC)c2)S(=O)(=O)c2cccc3ccccc23)cc1 [5c]" parameter=IC50 number=12.7

###

Tested on: tubulin
Assay: In vitro tubulin polymerisation inhibitory assay (absorbance 340 nm)
Format: biochemical
Details: 37 °C, 20 min, read-out: IC50 tubulin polymerisation inhibition
parameter: IC50 (nM)

structure_smiles=COc1ccc(CN(c2cc(OC)c(OC)c(OC)c2)S(=O)(=O)c2cccc3ccccc23)cc1 number=2800
